Procedure Text: Solubility in culture medium
Assay type: physicochemical
Reported Endpoint: solubility

Lookup: Supply reported solubility belonging to this compound: CC1=NN(c2ccccc2)C(=O)C1 [Radicut, 3-Methyl-1-phenyl-2-pyrazolin-5-one]
Found: ≥ 300 µM

====

Test system: Cytochrome P450 1A1/2
Experimental Context: read-out: EROD activity inhibition IC50; H4IIE cells
pIC50: −log10 of the molar value.
Reported Endpoint: pIC50

Lookup: Give reported pIC50 value for COc1cc(C=Cc2cc(/C=C/c3ccc(O)c(OC)c3)nn2-c2ccccc2)ccc1O
Found: ~4.60
